Measurement protocol: In vivo zebrafish kinetics of BPZ (water exposure, organ concentrations by LC-MS/MS)
Design: species or system zebrafish (Danio rerio)
Assay conditions: female, zebrafish, carcass, other: water exposure, 10 µg/L, female zebrafish, 72 h; read-out: Mean concentration, carcass
Endpoint name: concentration at 72 h

Oc1ccc(C2(c3ccc(O)cc3)CCCCC2)cc1    1120 ng/g

---

Measurement protocol: In vivo zebrafish kinetics of BPZ (water exposure, organ concentrations by LC-MS/MS)
Set-up: species or system zebrafish (Danio rerio)
Assay conditions: female, zebrafish, whole body, other: exposure via tank water, 10 μg/L (nominal water concentration), female zebrafish, 492 h (depuration phase); read-out: Mean concentration, whole body (calculated)
Endpoint name: concentration at 492 h (ng/g)

Oc1ccc(C2(c3ccc(O)cc3)CCCCC2)cc1 [BPZ, bisphenol Z]    28.2
